From: paper PMC7801526

Target: urease, catalytic subunit UreB (Helicobacter pylori, UniProt P69996)
Construct: with UreA
Sequence (P69996 whole entry): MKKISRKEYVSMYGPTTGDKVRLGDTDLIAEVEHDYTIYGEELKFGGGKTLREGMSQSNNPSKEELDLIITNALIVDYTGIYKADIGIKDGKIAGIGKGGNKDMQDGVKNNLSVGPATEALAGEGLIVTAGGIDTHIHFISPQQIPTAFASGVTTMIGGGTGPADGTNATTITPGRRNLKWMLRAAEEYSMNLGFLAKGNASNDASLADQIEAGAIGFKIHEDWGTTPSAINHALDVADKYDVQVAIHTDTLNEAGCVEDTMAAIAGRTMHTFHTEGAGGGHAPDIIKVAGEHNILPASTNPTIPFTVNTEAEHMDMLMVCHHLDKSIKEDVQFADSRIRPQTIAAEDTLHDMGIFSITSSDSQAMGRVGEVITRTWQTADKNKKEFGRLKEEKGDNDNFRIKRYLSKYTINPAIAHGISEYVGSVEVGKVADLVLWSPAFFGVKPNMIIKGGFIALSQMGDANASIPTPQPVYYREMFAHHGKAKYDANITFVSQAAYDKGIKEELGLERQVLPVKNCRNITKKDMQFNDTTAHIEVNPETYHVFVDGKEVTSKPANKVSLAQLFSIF
Sequence (P14916 whole entry, further chain): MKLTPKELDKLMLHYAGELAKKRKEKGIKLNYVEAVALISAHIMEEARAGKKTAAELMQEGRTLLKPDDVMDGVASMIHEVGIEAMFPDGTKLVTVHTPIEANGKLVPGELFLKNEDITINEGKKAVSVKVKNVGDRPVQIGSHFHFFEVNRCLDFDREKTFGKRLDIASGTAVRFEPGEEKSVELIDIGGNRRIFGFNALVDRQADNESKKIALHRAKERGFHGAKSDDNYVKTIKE
Assay: cryo-EM structure at […] Å; phenol red assay on purified urease (IC50 […], Ki by Cheng-Prusoff)
Assay type: biochemical
Experimental endpoint: Ki

OCCS = 435 µM
